This collection of values is drawn from ChEMBL document CHEMBL1140923.

biological target: NAD-dependent protein deacetylase sirtuin-1 (Homo sapiens) (UniProt Q96EB6); test: Activation of human SIRT1 expressed in Escherichia coli BL21Start assessed as maximum activation of enzyme activity by mass spectrometry assay
Sequence (Q96EB6 whole entry): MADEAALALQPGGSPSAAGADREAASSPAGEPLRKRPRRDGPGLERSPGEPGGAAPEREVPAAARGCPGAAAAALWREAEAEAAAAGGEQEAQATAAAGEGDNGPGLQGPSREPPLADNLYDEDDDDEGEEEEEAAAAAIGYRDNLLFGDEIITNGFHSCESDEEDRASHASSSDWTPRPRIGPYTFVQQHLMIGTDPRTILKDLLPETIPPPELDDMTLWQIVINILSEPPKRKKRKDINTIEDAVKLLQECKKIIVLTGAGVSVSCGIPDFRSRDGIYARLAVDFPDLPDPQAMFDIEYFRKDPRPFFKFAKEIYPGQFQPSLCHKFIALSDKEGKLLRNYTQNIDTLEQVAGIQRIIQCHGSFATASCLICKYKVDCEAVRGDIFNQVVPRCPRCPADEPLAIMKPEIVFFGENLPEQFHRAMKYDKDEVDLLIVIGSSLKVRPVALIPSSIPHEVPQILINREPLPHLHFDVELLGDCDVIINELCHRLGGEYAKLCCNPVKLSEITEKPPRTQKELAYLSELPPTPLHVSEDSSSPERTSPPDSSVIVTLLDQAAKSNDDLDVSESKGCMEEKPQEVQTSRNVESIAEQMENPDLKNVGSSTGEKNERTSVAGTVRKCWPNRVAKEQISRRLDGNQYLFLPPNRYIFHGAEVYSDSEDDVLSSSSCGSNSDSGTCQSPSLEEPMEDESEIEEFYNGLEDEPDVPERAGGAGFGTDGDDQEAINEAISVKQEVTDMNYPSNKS
Could you please mark Yes for values of Activity below 300% and No for values at or above it?

[[record]]
entry_smiles = "COc1ccc(C(=O)Nc2ccccc2-c2cn3c(CN4CCNCC4)csc3n2)cc1OC"
class = "No"

[[record]]
entry_smiles = "O=C(Nc1ccccc1-c1cn2c(CN3CCNCC3)csc2n1)c1cccc(OC(F)(F)F)c1"
class = "No"

[[record]]
entry_smiles = "O=C(Nc1ccccc1-c1cn2c(CN3CCNCC3)csc2n1)c1cc2ccccc2s1"
class = "Yes"

[[record]]
entry_smiles = "O=C(Nc1ccccc1-c1cn2c(CN3CCNCC3)csc2n1)c1ccccc1"
class = "No"

[[record]]
entry_smiles = "COc1cc(C(=O)Nc2cccc(-c3cn4ccsc4n3)c2)cc(OC)c1OC"
class = "No"

[[record]]
entry_smiles = "COc1cc(C(=O)Nc2ccccc2-c2cn3ccsc3n2)cc(OC)c1OC"
class = "Yes"

[[record]]
entry_smiles = "O=C(Nc1ccccc1-c1cn2c(CN3CCNCC3)csc2n1)c1cnccn1"
class = "Yes"

[[record]]
entry_smiles = "O=C(Nc1ccccc1-c1cn2c(CN3CCNCC3)csc2n1)c1ccc2occc2c1"
class = "No"

[[record]]
entry_smiles = "COc1ccc(C(=O)Nc2ccccc2-c2cn3c(CN4CCNCC4)csc3n2)c(OC)c1"
class = "Yes"

[[record]]
entry_smiles = "COc1ccc(C(=O)Nc2ccccc2-c2cn3c(CN4CCNCC4)csc3n2)cc1F"
class = "No"

[[record]]
entry_smiles = "O=C(Cc1ccccc1)Nc1ccccc1-c1cn2c(CN3CCNCC3)csc2n1"
class = "Yes"

[[record]]
entry_smiles = "COc1cc(C(=O)Nc2ccccc2-c2cn3c(CN(C)C)csc3n2)cc(OC)c1OC"
class = "Yes"

[[record]]
entry_smiles = "COc1cccc(C(=O)Nc2ccccc2-c2cn3c(CN4CCNCC4)csc3n2)c1"
class = "No"

[[record]]
entry_smiles = "Oc1ccc(/C=C/c2cc(O)cc(O)c2)cc1"
class = "Yes"

